Values compiled from patent US12201640B2.

# target.desc: GABAA-R (Homo sapiens, UniProt P14867+P47870)
# Sequence (P14867 1-456): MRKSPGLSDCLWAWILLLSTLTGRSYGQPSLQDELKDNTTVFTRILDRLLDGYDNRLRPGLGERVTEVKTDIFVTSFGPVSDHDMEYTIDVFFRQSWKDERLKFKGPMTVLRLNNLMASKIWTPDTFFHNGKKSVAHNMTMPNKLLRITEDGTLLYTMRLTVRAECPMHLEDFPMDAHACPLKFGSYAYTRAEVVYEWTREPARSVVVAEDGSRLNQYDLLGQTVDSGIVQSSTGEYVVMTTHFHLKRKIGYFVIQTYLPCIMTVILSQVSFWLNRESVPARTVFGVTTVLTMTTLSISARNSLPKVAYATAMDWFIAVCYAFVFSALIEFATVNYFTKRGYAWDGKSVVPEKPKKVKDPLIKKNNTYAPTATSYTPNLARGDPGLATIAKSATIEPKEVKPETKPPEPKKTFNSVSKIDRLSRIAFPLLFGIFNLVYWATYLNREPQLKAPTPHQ
# Sequence (P47870 1-512): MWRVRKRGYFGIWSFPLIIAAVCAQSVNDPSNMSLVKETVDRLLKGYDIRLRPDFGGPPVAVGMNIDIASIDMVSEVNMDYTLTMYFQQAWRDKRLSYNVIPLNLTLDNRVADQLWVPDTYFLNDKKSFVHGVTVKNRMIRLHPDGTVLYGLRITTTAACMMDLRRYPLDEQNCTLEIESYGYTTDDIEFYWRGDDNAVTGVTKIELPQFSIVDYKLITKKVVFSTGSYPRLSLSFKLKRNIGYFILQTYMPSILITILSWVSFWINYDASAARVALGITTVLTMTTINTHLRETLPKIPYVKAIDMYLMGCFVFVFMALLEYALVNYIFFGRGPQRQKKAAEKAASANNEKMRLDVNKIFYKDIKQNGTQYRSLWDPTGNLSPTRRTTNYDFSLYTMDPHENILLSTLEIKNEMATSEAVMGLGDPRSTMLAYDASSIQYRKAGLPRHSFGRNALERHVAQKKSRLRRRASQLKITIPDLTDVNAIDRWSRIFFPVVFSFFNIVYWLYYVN
# test.description: Electrophysiological evaluation at GABAA-R (Table 2)
# Assay type: cell-based
readout.name: EC50

Ask: Short answer please: EC50, GABAA-R (Homo sapiens, UniProt P14867+P47870), entry C[C@@]1(O)CC[C@H]2[C@H](CC[C@@H]3[C@@H]2CC[C@]2(C)[C@@H](C(=O)Cn4cc(C#N)cn4)CC[C@@H]32)C1
Result: 0.1 to 0.5 µM

====

# target.desc: [35S]-TBPS binding, rat brain cortical membranes (GABA receptor complex)
# test.description: Steroid inhibition of [35S]-TBPS binding
# condition.summary: 3 nM [35S]-TBPS, 5 μM GABA
pIC50: −log10 of the molar value.
readout.name: pIC50

1. CC[C@@]1(O)CC[C@H]2[C@H](CC[C@@H]3[C@@H]2CC[C@]2(C)[C@@H](C(=O)Cn4cccn4)CC[C@@H]32)C1    6.30 to 7.00
2. C[C@]12CC[C@H]3[C@@H](CC[C@@H]4C[C@@](O)(CF)CC[C@@H]43)[C@@H]1CC[C@@H]2C(=O)Cn1cc(S(C)(=O)=O)cn1    ≤ 6.30
3. C[C@@]1(O)CC[C@H]2[C@H](CC[C@@H]3[C@@H]2CC[C@]2(C)[C@@H](C(=O)Cn4cc(Cl)cn4)CC[C@@H]32)C1    7.30 to 8.00
4. C[C@]12CC[C@H]3[C@@H](CC[C@@H]4C[C@@](O)(C(F)F)CC[C@@H]43)[C@@H]1CC[C@@H]2C(=O)Cn1cc(S(C)(=O)=O)cn1    ≤ 6.30
5. COC[C@@]1(O)CC[C@H]2[C@H](CC[C@@H]3[C@@H]2CC[C@]2(C)[C@@H](C(=O)Cn4cccn4)CC[C@@H]32)C1    6.30 to 7.00
6. C[C@@]1(O)CC[C@@H]2[C@H]3CC[C@]4(C)[C@@H](C(=O)Cn5cccn5)CC[C@H]4[C@@H]3C[C@@H](F)[C@H]2C1    6.30 to 7.00

Ask: Quick check: pIC50 of C[C@@]1(O)CC[C@@H]2[C@H]3CC[C@]4(C)[C@@H](C(=O)Cn5cccn5)CC[C@H]4[C@@H]3C[C@@H](F)[C@@H]2C1 ?
Result: ≤ 6.30

Ask: Quick check: pIC50 of CC(=O)c1ccn(CC(=O)[C@H]2CC[C@H]3[C@@H]4CC[C@@H]5C[C@](C)(O)CC[C@@H]5[C@H]4CC[C@]23C)n1 ?
Result: > 8.00

Ask: Quick check: pIC50 of C[C@]12CC[C@H]3[C@@H](CC[C@@H]4C[C@@](O)(CF)CC[C@@H]43)[C@@H]1CC[C@@H]2C(=O)Cn1cc(C#N)cn1 ?
Result: 7.30 to 8.00
